All values here come from ChEMBL document CHEMBL3228023.

assay: Binding affinity to opiate receptor in mouse/rat NG108-15 hybrid cells
Here the recorded pEC50 is given for each entry.
Answer as the number alone; pEC50 is minus log10 of concentration in mol/L.

> print(dat)
                                   molecule  observed
1  C[C@H]1C2Cc3ccc(O)cc3C1(C)CCN2CCC#N (single isomer, unassigned; (-))      7.10

Qu. Read the entry CN1CC[C@]23CCCC[C@H]2[C@H]1Cc1ccc(O)cc13.O=C(O)C(O)C(O)C(=O)O and write its reported pEC50.
Ans. 6.70

Qu. Quickly give me recorded pEC50 for N#CCCN1CC[C@]23CCCCC2C1Cc1ccc(O)cc13 (single isomer, unassigned; (-))
Ans. 7.82

Qu. Please report pEC50 for the following molecule: CN1CC[C@]23c4c5ccc(O)c4O[C@H]2[C@@H](O)C=C[C@H]3[C@H]1C5
Ans. 5.82

Qu. Name the recorded pEC50 of the item N#CCCN1CC[C@]23c4c5ccc(O)c4O[C@H]2[C@@H](O)C=CC3C1C5 (single isomer, unassigned; (-)) in your answer.
Ans. 6.00

Qu. Look up pEC50 of Br.CC1C2Cc3ccc(O)cc3C1(C)CCN2C (single isomer, unassigned; (-)) and report it.
Ans. 6.40

----------
Readings of selectivity ratio for the listed compounds
assay: Therapeutic ratio of LD50 for sc dosed mouse to ED50 for antinociceptive activity in sc dosed mouse by Eddy-hot plate assay; details: in vivo

> print(dat)
                                   compound            readout  observed
1  N#CCCN1CC[C@]23CCCCC2C1Cc1ccc(O)cc13 (single isomer, unassigned; (-))  selectivity ratio     23000

Shifting focus to the compound that follows.
Qu. Supply selectivity ratio value. Item: C[C@H]1C2Cc3ccc(O)cc3C1(C)CCN2CCC#N (single isomer, unassigned; (-))
Ans. 13000

----------
target: Opioid receptor (Rattus norvegicus, UniProt P33533+P34975+P33535); test: Binding affinity to opiate receptor in rat brain homogenates; assay type: tissue-based
readout: EC50
A bare number is not enough; add the unit after it.

Please review the entries below; each comes with its answer.
> print(dat)
                                   compound  observed
1  N#CCCN1CC[C@]23c4c5ccc(O)c4O[C@H]2[C@@H](O)C=CC3C1C5 (single isomer, unassigned; (-))     20 µM
2  C[C@H]1C2Cc3ccc(O)cc3C1(C)CCN2CCC#N (mixture of isomers)      3 µM
3  C[C@H]1C2Cc3ccc(O)cc3C1(C)CCN2CCC#N (single isomer, unassigned; (-))      3 µM
4  C[C@H]1C2Cc3ccc(O)cc3C1(C)CCN2CCCC#N (mixture of isomers)      4 µM
5  N#CCN1CC[C@]23CCCCC2C1Cc1ccc(O)cc13 (single isomer, unassigned; (-))      7 µM

Qu. Fill in: EC50 on Opioid receptor (Rattus norvegicus, UniProt P33533+P34975+P33535), entry N#CCCN1CC[C@]23CCCCC2C1Cc1ccc(O)cc13 (single isomer, unassigned; (-))
Ans. 1.5 µM

Qu. Report its EC50 with Opioid receptor (Rattus norvegicus, UniProt P33533+P34975+P33535) as the test system: CN1CC[C@]23CCCC[C@H]2[C@H]1Cc1ccc(O)cc13.O=C(O)C(O)C(O)C(=O)O
Ans. 0.7 µM

Qu. Please tell me the measured EC50 for COc1ccc2c3c1O[C@H]1C(=O)CC[C@@]4(O)C(C2)N(CCC#N)CC[C@]314 (single isomer, unassigned; (-)) ; system: Opioid receptor (Rattus norvegicus, UniProt P33533+P34975+P33535).
Ans. 60 µM

Qu. Provide EC50, system Opioid receptor (Rattus norvegicus, UniProt P33533+P34975+P33535), entry COc1ccc2c3c1O[C@H]1[C@@H](O)C=CC4C(C2)N(CCC#N)CC[C@@]341 (single isomer, unassigned; (-))
Ans. 700 µM

Qu. Look up Opioid receptor (Rattus norvegicus, UniProt P33533+P34975+P33535) data: EC50 of Br.CC1C2Cc3ccc(O)cc3C1(C)CCN2C (single isomer, unassigned; (-)) , then report it.
Ans. 4 µM

Qu. Consider the compound C[C@H]1C2Cc3ccc(O)cc3C1(C)CCN2CC#N (mixture of isomers) tested on Opioid receptor (Rattus norvegicus, UniProt P33533+P34975+P33535); state its EC50.
Ans. 20 µM
